The measurements presented in this section are drawn from ChEMBL document CHEMBL5665443.

Listed here: items and their measured inhibition.
# tested.target: G/T mismatch-specific thymine DNA glycosylase (Homo sapiens)
# condition.info: Compound Concentration 1.0 uM, Hit No
# Description: Inhibition of TDG by quantifying inhibition of TDG-mediated cleavage and dissociation of quenched duplex DNA oligonucleotides, measured as fluorescence at 594 nm. To generate a functional strand incision and increase turn-over this assay is coupled to APE1.
Just the number please, in %, no unit attached.

compound	unit.name	inhibition
COc1cc(Nc2ncc3c(n2)-c2ccc(Cl)cc2C(c2c(F)cccc2OC)=NC3)ccc1C(=O)O	%	47.7
CS(=O)(=O)N1CCCC(NC(=O)[C@H](CCC2CCCCC2)NC(=O)c2ccc(CNC(=O)c3cnc4ccccn34)cc2)C1 (some centres not stated)	%	41.5

In: Note inhibition for the compound shown: N#Cc1ccc(Nc2ccc3[nH]c(=O)[nH]c3c2)c(Cl)c1
Out: 38.3

In: Assign inhibition to the following record: Cc1nc(Cc2cccc(C(F)(F)F)c2)sc1-c1ccc(C(N)=O)nc1
Out: 96.5

In: Return reported inhibition. Input compound: Cc1n[nH]c2ncc(C(=O)N3CCC[C@H]3c3ccc(Cl)cc3)cc12
Out: 31.7

In: Tell us which inhibition value is on record for O=S(=O)(NC1CCC(c2cc(F)ccc2F)(S(=O)(=O)c2ccc(Cl)cc2)CC1)C(F)(F)F (configuration not stated)
Out: 36.8

###

Measured inhibition of individual entries
# tested.target: Endonuclease 8-like 2 (Homo sapiens) (UniProt Q969S2);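 also: fluorescence at 594 nm reports NEIL2 cutting and release of a quenched double-stranded DNA oligo substrate, reduced signal read as inhibition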
# Sequence (Q969S2 whole entry): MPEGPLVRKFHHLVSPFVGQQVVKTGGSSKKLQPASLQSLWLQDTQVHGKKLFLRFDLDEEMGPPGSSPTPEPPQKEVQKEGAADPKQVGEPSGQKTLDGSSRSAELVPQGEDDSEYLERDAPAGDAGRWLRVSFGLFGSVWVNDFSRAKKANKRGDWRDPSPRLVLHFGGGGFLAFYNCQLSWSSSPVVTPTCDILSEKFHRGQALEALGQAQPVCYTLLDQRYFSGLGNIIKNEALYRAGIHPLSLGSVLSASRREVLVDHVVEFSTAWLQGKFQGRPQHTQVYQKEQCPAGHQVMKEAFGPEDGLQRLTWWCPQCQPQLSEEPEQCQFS
# condition.info: Compound Concentration 10.0 uM, Hit No
# Description: Inhibition of NEIL2 by quantifying inhibition of NEIL2-mediated cleavage and dissociation of quenched duplex DNA oligonucleotides, measured as fluorescence at 594 nm.
Use % as the unit, but write only the number.

molecule	inhibition / %
CCOC(=O)c1ccc(N2C(=O)C(O)=C(C(=O)c3ccc(OC)cc3)C2c2ccc(F)cc2)cc1 (stereo unspecified)	0.414

In: Give the reported inhibition for this molecule. CCCCCCCN(CCc1ccc(SC(C)(C)C(=O)O)cc1)C(=O)Nc1ccc(F)cc1F
Out: -7.12

In: Respond only with inhibition recorded for CCCCN1CCC(COC(=O)c2cc(Cl)c(N)c3c2OCCO3)CC1
Out: 2.51

###

# tested.target: G/T mismatch-specific thymine DNA glycosylase (Homo sapiens) (UniProt Q13569);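 also: human TDG cleavage of quenched duplex DNA oligonucleotides coupled to APE1, strand release read as fluorescence at 594 nm, inhibition of TDG activity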
# Sequence (Q13569 whole entry): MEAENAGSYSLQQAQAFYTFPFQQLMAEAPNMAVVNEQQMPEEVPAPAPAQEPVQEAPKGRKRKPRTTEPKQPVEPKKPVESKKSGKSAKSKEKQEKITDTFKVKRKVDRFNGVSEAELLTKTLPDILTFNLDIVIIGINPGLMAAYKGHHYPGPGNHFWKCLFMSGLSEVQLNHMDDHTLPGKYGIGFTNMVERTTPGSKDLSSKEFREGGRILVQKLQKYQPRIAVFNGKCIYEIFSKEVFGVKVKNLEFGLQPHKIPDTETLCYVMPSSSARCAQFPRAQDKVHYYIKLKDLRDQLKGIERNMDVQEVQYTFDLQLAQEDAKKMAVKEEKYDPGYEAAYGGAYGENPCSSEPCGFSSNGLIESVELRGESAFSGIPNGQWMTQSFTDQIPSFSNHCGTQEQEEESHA
# condition.info: Compound Concentration 10.0 uM, Hit No
Reported inhibition is given for each of the following molecules.
Quick note: give the figure in %, leave out the unit.

molecule	unit.name	inhibition
CC1(C)CC(CN2CCC(F)(CNC(=O)c3cc(Cl)cc(Cl)c3)CC2)CCO1 (configuration not stated)	%	12.8

In: Look up and state reported inhibition for Cc1c(-c2cc(-c3ccccc3Cl)no2)cnn1C1CCNCC1
Out: -8.91

In: Return inhibition (reported value) for this molecule: O=C(O)CCCCCC[C@H]1C(=O)NC(=O)N1CCC(O)C1CCCCC1 (some centres not stated)
Out: 11

In: Give inhibition for the following molecule: Cc1cc([C@@H](C)Nc2cccc(-c3cc(C)c(C(=O)N[C@@H](C)C(=O)O)c(C)c3)c2)ccc1Cl
Out: 36.1

In: Provide measured inhibition value, entry: Nc1nc(-c2ccco2)c2cnn(Cc3ccccc3F)c2n1
Out: -4.93

In: Give the reported value of inhibition for this record: CC(C)Oc1ccc(-c2nc(-c3cccc4c3CC[C@@H]4NCCO)no2)cc1C#N
Out: -9.98

In: Indicate the recorded inhibition value for this molecule: C[C@@H](OC[C@@]1(c2ccccc2)CC[C@]2(CCC(=O)N2)CN1)c1cc(C(F)(F)F)cc(C(F)(F)F)c1
Out: 9.1

###

# tested.target: Methyl-CpG-binding domain protein 4 (Homo sapiens)
# condition.info: Compound Concentration 10.0 uM, Hit No
# Description: Inhibition of MBD4 by quantifying inhibition of MBD4-mediated cleavage and dissociation of quenched duplex DNA oligonucleotides, measured as fluorescence at 594 nm. To generate a functional strand incision and increase turn-over this assay is coupled to APE1.
Quick list: inhibition per entry.
Record the value in %, omitting the unit from your answer.

// below: answered molecules
molecule	data.value
CCCCC(=O)N(Cc1ccc(-c2ccccc2-c2nnn[nH]2)cc1)[C@H](C(=O)O)C(C)C	-9.61
Cc1ccc2[nH]c(CNCCCc3ccncc3)cc(=O)c2c1	56.8
CC(C)[C@@H]1CC[C@@H](C)C[C@@H]1P(=O)(c1ccccc1)c1ccccc1	3.26

In: Report value: inhibition, system: Methyl-CpG-binding domain protein 4 (Homo sapiens), molecule: COc1cccc(OC)c1-c1cc(C(=O)NC2(C(=O)O)C3CC4CC(C3)CC2C4)nn1-c1ccc(C(=O)N(C)CCCN(C)C)cc1C(C)C (configuration not stated)
Out: 10.5

In: // fetch inhibition; item: C[C@@H](c1cccc(CN)c1)n1cc(Cl)cc(C(N)=O)c1=N ; system: Methyl-CpG-binding domain protein 4 (Homo sapiens)
Out: 72.4

In: GET inhibition where system = Methyl-CpG-binding domain protein 4 (Homo sapiens) and item = COc1ccc(CC(=O)NCc2ccccc2-c2ccccc2C(=O)NCc2ccc(F)cc2F)cc1;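 also: MBD4 activity read as fluorescence at 594 nm from cleavage and release of a quenched duplex DNA oligonucleotide, with APE1 coupled to incise the strand and raise turnover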
Out: 5.5

In: State measured inhibition of the molecule CC(C)(O)c1cncc(-c2nc3ccc(F)cc3n2C2CC2)c1 with Methyl-CpG-binding domain protein 4 (Homo sapiens).
Out: 59.6

###

# tested.target: Uracil-DNA glycosylase (Homo sapiens) (UniProt P13051)
# Sequence (P13051 whole entry): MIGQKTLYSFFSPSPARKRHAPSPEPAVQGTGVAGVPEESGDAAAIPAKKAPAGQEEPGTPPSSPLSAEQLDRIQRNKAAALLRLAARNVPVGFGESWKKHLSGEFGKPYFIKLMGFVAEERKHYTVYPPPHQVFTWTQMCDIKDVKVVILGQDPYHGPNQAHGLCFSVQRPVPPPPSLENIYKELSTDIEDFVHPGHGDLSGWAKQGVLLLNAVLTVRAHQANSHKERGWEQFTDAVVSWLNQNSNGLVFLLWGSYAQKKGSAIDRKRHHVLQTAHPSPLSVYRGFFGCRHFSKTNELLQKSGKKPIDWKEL
# condition.info: Compound Concentration 10.0 uM, Hit No
# Description: Inhibition of UNG by quantifying inhibition of UNG-mediated cleavage and dissociation of quenched duplex DNA oligonucleotides, measured as fluorescence at 594 nm. To generate a functional strand incision and increase turn-over this assay is coupled to APE1.
// inhibition lookup, one value per entry
The reply should contain only the number, in %.

Take a look at these entries with their results.
compound	tested.target	inhibition / %
O=C(O)c1ccnc(N2CC(O)(c3ccc(OCc4c(-c5c(Cl)cccc5Cl)noc4C4CC4)cc3Cl)C2)c1	Uracil-DNA glycosylase (Homo sapiens) (UniProt P13051)	4.51
C[C@H](Cc1cc2c(c(C(N)=O)c1)N(CCCO)CC2)NCCOc1ccccc1OCC(F)(F)F	Uracil-DNA glycosylase (Homo sapiens) (UniProt P13051)	-9.87
CN(c1ncccc1CNc1ccnc(-c2nc3c(F)c(Cl)ccc3[nH]2)n1)S(C)(=O)=O	Uracil-DNA glycosylase (Homo sapiens) (UniProt P13051)	-1.37
CS(=O)(=O)Nc1c(O)ccc2c1CCCC2C1=NCCN1 (stereo not drawn)	Uracil-DNA glycosylase (Homo sapiens) (UniProt P13051)	-0.201
c1ccc(N2CCN(Cc3nc4ccccc4[nH]3)CC2)nc1	Uracil-DNA glycosylase (Homo sapiens) (UniProt P13051)	-4.15
COc1ccccc1C(=O)Nc1cccc(NC(=O)c2cccc(C)c2)c1	Uracil-DNA glycosylase (Homo sapiens) (UniProt P13051)	-7.92
COc1ncc(F)cc1CNc1ccc(Cc2c[nH]c3ncc(C)cc23)c(F)n1	Uracil-DNA glycosylase (Homo sapiens) (UniProt P13051)	6.92
O=C(O)CCC/C=C\C[C@H]1C(=O)C[C@@H](O)[C@@H]1/C=C/[C@@H](O)CCc1ccccc1	Uracil-DNA glycosylase (Homo sapiens) (UniProt P13051)	-6.21
Cc1cccc(CCN2CCC(C(=O)c3ccc(NS(C)(=O)=O)cc3)CC2)n1	Uracil-DNA glycosylase (Homo sapiens) (UniProt P13051)	-5.19
COc1cc(O)c(C(CC(=O)N2C[C@H](C)C[C@H](C)C2)c2ccc3c(c2)OCO3)c(OC)c1 (stereo partly drawn)	Uracil-DNA glycosylase (Homo sapiens) (UniProt P13051)	-0.808

In: Quote Uracil-DNA glycosylase (Homo sapiens) (UniProt P13051) inhibition for entry Oc1ccc2c3c1O[C@H]1c4[nH]c5c(c4C[C@@]4(O)[C@@H](C2)N(CC2CC2)CC[C@]314)C[C@@]1(O)[C@H]2Cc3ccc(O)c4c3[C@@]1(CCN2CC1CC1)[C@H]5O4 .
Out: 1.76

In: Recall the reported inhibition of CN(C)C(=O)N1CC[C@H](NC2=Nc3cc(F)ccc3N(CC(F)F)c3ccc(Cl)cc32)C1 when tested on Uracil-DNA glycosylase (Homo sapiens) (UniProt P13051).
Out: 6.61

In: Please tell me the measured inhibition for O=C(O)CCCCCC[C@H]1C(=O)NC(=O)N1CCC(O)C1CCCCC1 (stereo partly drawn) ; system: Uracil-DNA glycosylase (Homo sapiens) (UniProt P13051).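 Also: UNG excision on a quenched double-stranded DNA oligo probe, with APE1 added for strand incision and turnover, read as fluorescence at 594 nm as strands separate.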
Out: -5.39

###

# tested.target: Single-strand selective monofunctional uracil DNA glycosylase (Homo sapiens);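 also: enzymatic SMUG1 assay coupled with APE1, reading fluorescence at 594 nm released when a quenched double-stranded DNA oligonucleotide substrate is cleaved and separated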
# condition.info: Compound Concentration 10.0 uM, Hit No
# Description: Inhibition of SMUG1 by quantifying inhibition of SMUG1-mediated cleavage and dissociation of quenched duplex DNA oligonucleotides, measured as fluorescence at 594 nm. To generate a functional strand incision and increase turn-over this assay is coupled to APE1.
property.name: inhibition
Could you write the number and then its unit?

In: Return inhibition (reported value) for this compound: CC(C)N(CCCCOCC(=O)NS(C)(=O)=O)c1cnc(-c2ccccc2)c(-c2ccccc2)n1
Out: -1.68%

In: Retrieve inhibition measured for CC[C@H](C)C(=O)O[C@H]1C[C@@H](C)C=C2C=C[C@H](C)[C@H](CC[C@@H]3C[C@@H](O)CC(=O)O3)[C@H]21 and print it.
Out: 15.8%

In: Supply reported inhibition belonging to this compound: NS(=O)(=O)c1cc(NC(=O)C2(c3ccccc3Cl)CC2)ccc1Oc1cccc(Cl)c1
Out: 17.9%

In: Supply inhibition value. Item: CC1(C)CC(CN2CCC(F)(CNC(=O)c3cc(Cl)cc(Cl)c3)CC2)CCO1 (configuration not stated)
Out: 8.24%

In: Determine from records and report inhibition for CCOc1cc(N2CCC(O)CC2)ccc1Nc1ncc2c(n1)N(C1CCCC1)CCC(=O)N2C
Out: 12.4%

In: Item C[C@@H](C(N)=O)[C@H](N)c1nc2ccc(C(C)(C)C)cc2[nH]1 : provide inhibition
Out: -0.466%

In: State, in one line, measured inhibition of Cc1cccc(CN2CCN(C(c3ccccc3)c3ccc(Cl)cc3)CC2)c1 (configuration not stated)
Out: 10.2%

In: Tell me its inhibition given CC[N+](CC)(CC)CCOc1ccc(/C=C/c2ccccc2)cc1 as the entry.
Out: 8.74%

In: Give the reported value of inhibition for this record: N#Cc1cccc(C(=O)Nc2cc(-c3ccccc3)nn2-c2ccccc2)c1
Out: -0.276%
